Measured values drawn from the supplement of paper PMC10567573 for this set.

// reported protein stability index for each item listed
B1: CCND1 (parent)
chain: IRRAYPDANLLNDRVLRAMLKAEE

- Variants of: B1
- test.summary: protein stability index of a GFP-peptide fusion (GPS, HEK-293T) (PSI 1-6); higher = more stable;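 further: lentivirally expressed fusions sorted by FACS into six bins by GFP to DsRed ratio, PSI derived from sequencing read proportions per bin multiplied by bin number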
- condition.description: c terminus: a fixed tail appended

variant.annotation | protein stability index
L10K | 3.23
L20Q | 2.58
Y5H | 2.02
N12R | 2.73
I1W | 2.32
